EXPERIMENTAL_PROTOCOL: modulators of S6 phosphorylation in cells, primary screen, cell-based, A549, cytoblot, luminescence, serum-stimulated (AID 1158);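 further: serum-stimulated A549 lung adenocarcinoma cells; signal is phosphorylated S6 detected by cytoblot immunostaining with HRP secondary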
MEASUREMENT_CONDITIONS: A549 phospho-S6 cytoblot, 5 h, higher = more signal
Catalogue of compounds with associated z-score

>>> df
                               input_smiles  recorded_endpoint      val
0  CCOC(=O)CCN1C(=O)[C@H]2[C@H]3[C@H](O)[C@H](O)CC(=NOCC(C)C)[C@H]3CC[C@H]2C1=O            z-score  -0.0487
1  CCN1C(=O)[C@@H]2[C@H]3C(=CC[C@@H]2C1=O)C1(OCCCO1)[C@H]1O[C@H]1[C@H]3O            z-score   -0.295
2  CCCNC(=O)OC[C@H]1O[C@H](CCON=Cc2ccc(C(=O)N3[C@H](c4ccc(C)cc4)[C@@H](C)CC[C@H]3C(=O)OC)cc2)C=C[C@@H]1Oc1ccc(OC)cc1            z-score   -0.619
3  CC(C)CON=C1C[C@@H](O)[C@@H](O)[C@@H]2[C@@H]3C(=O)N(C4CCCCC4)C(=O)[C@@H]3CC[C@H]12            z-score   -0.545
4  CON=Cc1ccc(C(=O)N2[C@H](c3ccc(C)cc3)[C@@H](C)CC[C@H]2C(=O)OC)cc1            z-score  -0.0424

Which z-score value belongs to "C=CC[C@@H]1C=C[C@H](ON=C(C)CCC(=O)OC[C@H]2O[C@H](C#Cc3ccccc3)C=C[C@@H]2Oc2ccc(C)cc2)[C@@H](CO)O1" ? -0.383

Which z-score value belongs to "COC(=O)CC=C[C@@H](C)[C@@H](C=NO[C@@H]1O[C@H](COC(C)=O)[C@@H](OC(C)=O)[C@H](OC(C)=O)[C@H]1OC(C)=O)NS(=O)(=O)c1ccc(C)cc1" ? -0.448
